For each record, write down the corresponding switch fluorescence ratio.
System: ATP;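 further: ATP exposure 15 min at 22 °C before imaging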
ASSAY NAME: switch fluorescence ratio, 500 uM ATP over buffer (Cy3 cluster intensity, sum of 5 cycles each) (fold (ratio)); higher = stronger signal-on switching upon ATP binding; sequences stand for … in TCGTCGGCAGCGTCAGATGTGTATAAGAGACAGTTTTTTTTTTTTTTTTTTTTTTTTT…TC
TEST CONTEXT: aptamer strand: ATP DNA aptamer (quencher-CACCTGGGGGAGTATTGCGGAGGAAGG + anchor), 100 nM annealed; ATP concentration: 500 uM
Number, no unit, nothing else.

[in] Supply switch fluorescence ratio value. Item: `CCAACATGGG`
[out] 1.03

[in] Give the reported value of switch fluorescence ratio for this record: `AAATCTTAAT`
[out] 1

[in] Note switch fluorescence ratio for the sequence shown: `GGGGCAAGGA`
[out] 0.987

[in] For the sequence `TGGTTTTCTG` , give its reported switch fluorescence ratio.
[out] 1.03

[in] Respond only with switch fluorescence ratio recorded for `AGACTTCAGC`
[out] 1.04

[in] Look up and report measured switch fluorescence ratio for this entry: `AGTTTATTGG`
[out] 0.999

[in] Give me measured switch fluorescence ratio, please, for this sequence: `TGGGGGCTAT`
[out] 0.989

[in] Tell me switch fluorescence ratio reported for `AGGCGGGTAA`
[out] 1.02

[in] Answer with reported switch fluorescence ratio of `TGCGGGTGTG`
[out] 1.03

[in] Read off the recorded switch fluorescence ratio for `TTTGCTTACG`
[out] 1.1

[in] Please supply the value of reported switch fluorescence ratio for the item `ATAATGGTTG`
[out] 1.04

[in] Identify measured switch fluorescence ratio corresponding to `TGTATTTAAG`
[out] 0.97

[in] Given the sequence `GAATGTTCTT` , write its reported switch fluorescence ratio.
[out] 1.03

[in] Supply recorded switch fluorescence ratio for `ATAATTTCTG` here.
[out] 0.99

[in] Query switch fluorescence ratio for `ACGTGGTTAG`
[out] 1

[in] Could you please provide reported switch fluorescence ratio for `AAGTTTATTT` ? Thanks!
[out] 0.973

[in] Name the recorded switch fluorescence ratio of the item `AAGAAGTTTT` in your answer.
[out] 1

[in] Recall and state the measured switch fluorescence ratio for `GATCGTACTT` .
[out] 1.08

[in] Provide one value: measured switch fluorescence ratio of `AAGGCGTCGG`
[out] 0.993

[in] Indicate the recorded switch fluorescence ratio value for this sequence: `TAGAGTCTTT`
[out] 0.994

[in] State, in one line, measured switch fluorescence ratio of `CCGTGTATTT`
[out] 1.05

[in] Tell me switch fluorescence ratio reported for `TAGGATTGG`
[out] 0.971

[in] Given the sequence `AATGGGGTAC` , write its reported switch fluorescence ratio.
[out] 1.01

[in] Note switch fluorescence ratio for the sequence shown: `TATGTGTAAC`
[out] 0.978

[in] Name the recorded switch fluorescence ratio of the item `TTAATCTCGG` in your answer.
[out] 0.995

[in] Give a short answer stating reported switch fluorescence ratio for `CCGCATTGGG` .
[out] 3.35

[in] Return the recorded switch fluorescence ratio value; entry: `AAGTTGTATG`
[out] 0.979

[in] Return switch fluorescence ratio for the following sequence: `GTAGGTTTGA`
[out] 0.994

[in] Read the entry `GATCATCCTG` and write its reported switch fluorescence ratio.
[out] 1.01

[in] Return switch fluorescence ratio (reported value) for this sequence: `GGCCTCATGC`
[out] 1.02

[in] Consider the sequence `GGCTGTTGGG` . State its measured switch fluorescence ratio.
[out] 0.978

Source of measurements: the supplement of paper PMC10126150
